Measured values drawn from ChEMBL document CHEMBL1201862 for this set.

# experimentalSystem: Kappa-type opioid receptor (Homo sapiens, UniProt P41145)
# Sequence (P41145 whole entry): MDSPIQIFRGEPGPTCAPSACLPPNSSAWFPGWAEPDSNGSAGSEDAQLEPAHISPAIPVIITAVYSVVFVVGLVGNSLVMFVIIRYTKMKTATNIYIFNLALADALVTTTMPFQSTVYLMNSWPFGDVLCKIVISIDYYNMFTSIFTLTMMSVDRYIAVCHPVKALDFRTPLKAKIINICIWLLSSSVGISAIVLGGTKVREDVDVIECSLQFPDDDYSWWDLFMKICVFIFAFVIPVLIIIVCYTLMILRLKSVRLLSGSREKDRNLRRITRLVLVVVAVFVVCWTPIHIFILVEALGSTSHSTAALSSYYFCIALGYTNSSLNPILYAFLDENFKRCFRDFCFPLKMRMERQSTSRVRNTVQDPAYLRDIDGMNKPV
# Type: functional
measureName: IC50

Please report the recorded IC50 for `C/C(=N\NC(=O)c1cc2ccccc2cc1O)c1ccccn1` .
> 32 µM

----------
# experimentalSystem: Nonstructural protein 1 (Influenza A virus)
# Sequence (Q194T2 whole entry): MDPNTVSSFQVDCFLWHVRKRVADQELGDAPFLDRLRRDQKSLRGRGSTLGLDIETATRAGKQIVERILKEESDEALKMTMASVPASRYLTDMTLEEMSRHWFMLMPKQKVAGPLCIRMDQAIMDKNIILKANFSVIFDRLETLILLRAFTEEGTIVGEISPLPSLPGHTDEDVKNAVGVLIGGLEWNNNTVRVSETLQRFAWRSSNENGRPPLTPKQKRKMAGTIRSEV
# Format: functional, Influenza A virus (A/California/07/2009(H1N1))
Active and inactive are the calls of the source.
measureName: IC50

The examples below pair each entry with its known result.
>  <molecule>
Cc1ccccc1NC(=O)CSc1nn2c(=O)c(C)nnc2s1

>  <IC50>
10.5 µM (active)

$$$$
>  <molecule>
CCCCCn1c(N)c(-c2nc3ccccc3s2)c2c([N+](=O)[O-])nn(CC)c(=O)c21

>  <IC50>
> 50 µM (active)

$$$$
>  <molecule>
O=C1c2ccccc2-c2onc3c(N4CCN(CCO)CC4)cc(N4CCN(C(=O)c5ccco5)CC4)c1c23

>  <IC50>
9.93 µM (active)

$$$$

Batch lookup, IC50 per entry.
1. C/C(=N\NC(=O)c1cc2ccccc2cc1O)c1ccccn1
2. O=C(O)c1cccc(N/N=C(\N=Nc2ccccc2)c2ccccc2)c1
3. O=C1Nc2ccccc2/C1=N\N=C\C1=C(N2CCOCC2)C(=C\c2ccccc2)/CC1
4. CN(C)c1ccc(C=NN2CCCCCC2)cc1
5. COc1ccc(S(=O)(=O)/N=C2\C=C(Nc3ccc(O)cc3)C(=O)c3ccccc32)cc1
6. O=C(Nc1nc(-c2ccccn2)cs1)c1ccco1
7. O=C1NC(=O)N(c2ccccc2F)C(=O)/C1=C/c1ccc(Sc2nc3ccccc3[nH]2)o1
8. COc1ccccc1NC(=O)Nc1nc(CC(=O)Nc2ccc(N(C)C)cc2)cs1

1: 3.77 µM (active); 2: 34.5 µM (active); 3: 8.08 µM (active); 4: 48.1 µM (active); 5: 8.09 µM (active); 6: 7.12 µM (active); 7: > 100 µM (active); 8: 26.9 µM (active)

Batch lookup, IC50 per entry.
1. Cc1c(F)cccc1NC(=O)CCCCCC1NC(=O)NC1C (stereo not drawn)
2. COc1cccc(/C=N/NC(=S)Nc2cccc(C(=O)O)c2)c1O

1.18 µM (active)
4.94 µM (active)
